Tested on: IFN-γ
test details: In vivo peptide micro-library screening, IFN-γ ELISA of re-stimulated splenocytes relative to A5
Parameters: species or system mice
reported conditions: rank among 100 micro-library peptides; IFN-γ on re-stimulation relative to A5; 5 peptides plus A5 with CPQ
The following substances are shown together with reported Experimental rank values.
Keep the answer to the number alone.

Use these answered entries as a reference point.
H6-RGEYEDPYY-ERR (HHHHHHRGEYEDPYYERR; CT56) | 35
H6-MPQLFMVSK-ERR (HHHHHHMPQLFMVSKERR; CT100) | 16

Switching to the query record.
Ask: # Experimental rank lookup, item H6-KTPEL VEAL-ERR (HHHHHHKTPELVEALERR; CT36*)
Reply: 51

Where do these numbers come from? They come from patent US20240091328A1.
